// provenance: PubChem BioAssay (NCI)

Test system: HCT-15 colon
Test: NCI tumour cell line growth inhibition, 48 h
Attribute Measured: GI50

Here is how some molecules turned out for GI50.
Molecule: COc1cc2c(cc1OCCCCCn1c3ccccc3c3ccccc31)N=C[C@@H]1CCCN1C2=O
GI50: 1.67 µM
//
Molecule: CN(C)c1ncnc2c1ccn2C1OC(CO)C(O)C1O (centres undefined)
GI50: 1.1 µM
//
Molecule: O=c1[nH]nc(-c2ccccc2)c2c(-c3ccccc3)onc12
GI50: 0.554 µM
//
Molecule: Cc1cc(Cl)ccc1Nc1nc(C(F)(F)F)ccc1C(=O)Nc1cccc(C(F)(F)F)c1
GI50: 2.56 µM
//
Molecule: COc1ccc(CN=C(N)N=C(N)N)cc1OC
GI50: > 1000 µM

**Q:** What does the record list as GI50 for `Cc1ccc(S(=O)(=O)Nc2cc(Sc3ccccc3)c(O)c3ccccc23)cc1` ?
**A:** 6.81 µM

**Q:** For `CCC(=O)c1c(C(F)(F)F)n([O-])c2ccccc2[n+]1=O` , what is its reported GI50?
**A:** 1.09 µM

**Q:** Dear colleague, I am looking for the recorded GI50 of the following molecule: `Cc1c(C(N)=O)sc2c1c(=O)n(Cc1ccccc1)c1nnc(S(=O)(=O)CC(=O)Nc3ccc(Cl)cc3)n21`
**A:** 38.6 µM

**Q:** What measured GI50 goes with `Oc1ccc(O)c2c1C1(Cl)C(Cl)=C(Cl)C2(Cl)C1(Cl)Cl` ?
**A:** 4.15 µM

**Q:** Bench note: what GI50 did `Cc1cn(Cc2ccccc2CCl)c(=O)n(Cc2ccccc2CCl)c1=O` show?
**A:** 1.96 µM

**Q:** Consider the molecule `CNC(=O)c1cncc(/C=C/c2c(Cl)cccc2Cl)c1` and give its measured GI50.
**A:** > 22.4 µM

**Q:** Consider the molecule shown here: `Nc1cc(-c2ccccc2)n(C(=O)Nc2ccc(Oc3ccccc3)cc2)n1` What is its recorded GI50?
**A:** > 100 µM

**Q:** Need GI50 of NS(=O)(=O)c1ccc(N2N=C(c3cccs3)CC2c2ccccc2O)cc1 (centres undefined) , thanks.
**A:** 1.35 µM

**Q:** Any idea what its GI50 is? The molecule is `COc1ccc2c(c1OC)C(=O)O[C@@H]2[C@H]1c2c(c(Br)c3c(c2OC)OCO3)CCN1C`
**A:** 4.67 µM

====

Parameter 'readout' = GI50; parameter 'system' = SK-MEL-2 melanoma.
Peptide text beside a SMILES is read from it.

Example results:
Compound: Cn1ncnc1C1c2n[nH]c(=O)c3cc(F)cc(c23)NC1c1ccc(F)cc1 (centres undefined)
GI50: > 100 µM
//
Compound: O=C1NC(SCc2ccc(F)cc2)=N/C1=C/c1cccc(OCc2ccc(Cl)cc2)c1
GI50: > 100 µM
//
Compound: CC(=O)NC(C(=O)NC(C)C(=O)N1CCCC1C(=O)O)C(C)C (stereo not drawn) (Ac-Val-Ala-Pro-OH; configuration not given here)
GI50: 83.8 µg/mL

**Q:** Short answer please: GI50, SK-MEL-2 melanoma, entry `Cc1ccc(-c2c3c(N)c4c(nc3nc3c2c(C)nn3-c2ccccc2)CCC4)cc1`
**A:** 21.1 µM

====

Tested on: MOLT-4 leukemia
Assay: NCI tumour cell line growth inhibition, 48 h
Attribute Measured: TGI (µM)
Number only, in µM; omit the unit.

Compound: O=[N+]([O-])c1cc2c(ccc3occc32)o1
TGI, µM: 28.6

Compound: O=C(CN1C(=O)S/C(=C\C(Cl)=C\c2ccccc2)C1=O)NCCCn1ccnc1
TGI, µM: 7.57

Compound: CN1CCCC(C(=O)OCC(=O)C2(O)CCC3C4CCC5=CC(=O)CCC5(C)C4C(O)CC32C)C1 (stereo not given)
TGI, µM: 48.4

# input for lookup
**Q:** What does the data say about its TGI? Entry: `CC1=C(C)C(=O)C(C2=C(C3=CC(=O)C(C)=C(C)C3=O)C(=O)c3ccccc3C2=O)=CC1=O`
**A:** 5.3
